Molecular target: recombinant human KLK5 (human) (UniProt Q9Y337)
Sequence (Q9Y337 67-293): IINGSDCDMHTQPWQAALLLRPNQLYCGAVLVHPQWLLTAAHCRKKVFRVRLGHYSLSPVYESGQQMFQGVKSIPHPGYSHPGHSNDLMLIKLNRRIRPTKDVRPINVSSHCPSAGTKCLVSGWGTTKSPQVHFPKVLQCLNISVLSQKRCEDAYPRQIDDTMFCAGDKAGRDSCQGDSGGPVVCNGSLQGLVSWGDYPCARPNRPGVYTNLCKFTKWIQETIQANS
Experiment: direct activity assay, 5 nM KLK5, Boc-VPR-AMC
experimental_readout: pIC50
pIC50 here is simply -log10 of the concentration when that concentration is written in mol/L.

Prompt: Recorded pIC50 of 9F2 (antibody, V domains shown) VH: QSVKESEGGLFKPTDNLTLTCTVSGFSLSSYGVSWVRQAPGNGLEYIGFIGSGGSPYYASWAKSRSTITRNTNLNTVTLKMTSLTAADTATYFCARDDVGGGKSLDIWGPGTLVTVSS VL: NIVMTQTPASVEVAVGGTVIIKCQASQSISNYLSWYHQKSGQRPRLLIYSASTLASGVPSRFKGSGSGTQFTLTISDLECADAATYYCHQDYTSNSVDNTFGGGTEVVVK , please.
Completion: 9.00
